For each of the variants below, state its enrichment.
B1: NF2 (merlin) isoform 7, human, full length (507 aa, lacks exons 2-3 = isoform-1 residues 39-121; exon-16 C-terminus), P35240-4 (parent)
chain: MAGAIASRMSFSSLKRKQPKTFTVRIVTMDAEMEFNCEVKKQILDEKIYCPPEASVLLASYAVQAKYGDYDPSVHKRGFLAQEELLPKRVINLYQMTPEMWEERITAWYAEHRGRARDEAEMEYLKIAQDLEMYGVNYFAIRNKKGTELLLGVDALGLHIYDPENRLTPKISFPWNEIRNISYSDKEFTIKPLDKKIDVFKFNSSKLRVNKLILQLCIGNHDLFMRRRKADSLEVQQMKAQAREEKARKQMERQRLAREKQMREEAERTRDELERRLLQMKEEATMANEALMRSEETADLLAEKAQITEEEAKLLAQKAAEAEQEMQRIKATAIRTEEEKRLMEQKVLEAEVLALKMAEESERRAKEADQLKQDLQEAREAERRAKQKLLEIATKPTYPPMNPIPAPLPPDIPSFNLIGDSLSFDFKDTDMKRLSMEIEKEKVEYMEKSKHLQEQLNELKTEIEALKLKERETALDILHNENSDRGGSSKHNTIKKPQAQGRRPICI

# Variants of: B1
# test summary: reverse yeast two-hybrid deep mutational scan (rY2H-seq): NF2 isoform 7 mutant library as bait mated with wild-type prey strains; selection on medium lacking adenine for non-interacting pairs; NextSeq paired-end sequencing; enrichment vs …
# condition summary: with KDM1A (lysine-specific histone demethylase 1A; the table's label AOF2 is a gene synonym of KDM1A), O60341; yeast diploids after mating (RBait_S3 x RPrey_S3), 30 °C, selection for reporter genes on NB agar; human ABL2 co-expressed as the kinase-dead K35M mutant …; HIGHER = WEAKER BINDING (the opposite of display enrichments): higher = stronger loss of interaction: reverse Y2H selects yeast in which bait and prey do NOT interact (growth without adenine), so a …; hits-only table; scale: rY2H score; numbering: uniprot, sequence starts at 1
Give bare numbers.

* Q373E | 2.85
* A406S | 11.8
* I392E | 3.78
* Y161L | 2.08
* H75S | 2.92

Required: enrichment, one value per variant below.
1. A406Q
2. S55E

1.87
5.38

Required: enrichment, one value per variant below.
1. R293A
2. L342A
3. E309L

2.38
2.28
1.9

Required: enrichment, one value per variant below.
1. A333L
2. L434R

[1.58, 1.73]

Required: enrichment, one value per variant below.
1. K372E
2. L167A

1.68
1.67

Required: enrichment, one value per variant below.
1. L315S
2. A319L
3. M122A

[4.11, 4.6, 3.3]

Required: enrichment, one value per variant below.
1. S488R
2. E325A

1: 1.65; 2: 3.73

Required: enrichment, one value per variant below.
1. R379C
2. R364K
3. F426A

[2, 3.56, 3.99]

Requested field: enrichment. Item: `Q279E`
4.82
